tested on: XF 498 CNS; test: NCI tumour cell line growth inhibition, 48 h
Reported TGI values follow for various compounds

Worked examples, 8 compounds total:
- compound: "Cc1cccc(C)c1NC(=O)CCC(=O)NNC(=O)c1cc(O)c2ccccc2c1"
  reported_endpoint: "TGI"
  reading: "> 100 µM"
- compound: "c1ccc2[nH]c(-c3nc4ccccc4o3)nc2c1"
  reported_endpoint: "TGI"
  reading: "> 100 µM"
- compound: "COc1ccc(CC(=O)c2cc(OC)c(OC)cc2C)cc1OC"
  reported_endpoint: "TGI"
  reading: "> 100 µM"
- compound: "O=C(Cn1ccnc1[N+](=O)[O-])N(CCO)CCO"
  reported_endpoint: "TGI"
  reading: "> 58 µM"
- compound: "COc1cc2c(cc1O)[C@H](C)C(c1ccc(Cl)cc1)O2 (stereo not given in full)"
  reported_endpoint: "TGI"
  reading: "29.4 µM"
- compound: "COC1/C=C\\C=C(/C)C(=O)NC2=CC(=O)C(NCCCl)=C(CC(C)CC(OC)C(O)C(C)/C=C(/C)C1OC(N)=O)C2=O (stereo not given)"
  reported_endpoint: "TGI"
  reading: "8.85 µM"
- compound: "CC(=O)O[C@]1(C(C)=O)CC[C@H]2[C@@H]3C[C@H](C)C4=CC(=O)C=C[C@]4(C)[C@@]3(F)[C@@H](O)C[C@@]21C"
  reported_endpoint: "TGI"
  reading: "> 100 µM"
- compound: "c1cnc2c(c1)-n1cccc1C1(CCOCC1)NN2"
  reported_endpoint: "TGI"
  reading: "> 100 µM"

Exam item: Give TGI (XF 498 CNS) of the following compound: Oc1c(Cl)c2nccnc2c2ccccc12
Marked response: > 100 µM

----------
Reported TGI values follow for various compounds
test system: SK-MEL-2 melanoma; test: NCI tumour cell line growth inhibition, 48 h

Worked examples, 5 compounds total:
- compound: "O=c1[nH]cnc2c1nnn2CCCn1nnc2c(=O)[nH]cnc21"
  reading: "> 100 µM"
- compound: "O=C(CCN1CCCCC1CCO)Nc1ccc2c(c1)C(=O)c1ccc(NC(=O)CCN3CCCCC3CCO)cc1C2=O (stereo unspecified)"
  reading: "7.27 µM"
- compound: "O=CC1=CCCC2(C1)OCCO2"
  reading: "> 100 µM"
- compound: "COc1c2cc(C(C)(C)C)cc1CSCc1cc(C(C)(C)C)cc(c1OC)CCCCC2"
  reading: "> 50 µM"
- compound: "COc1cc2c(cc1OC)C1c3ccccc3C(C#N)(C2)N(C(=O)c2ccccc2)C1O (stereo unspecified)"
  reading: "> 100 µM"

Attention now turns to another entry.
Exam item: Would you kindly share the measured TGI for CC1C(c2ccc(N(C)C)cc2)c2cc3c(cc2OC1N1CCCC1)OCO3 (stereo unspecified) ?
Marked response: > 82.6 µM

----------
test system: KM20L2 colon; experiment: NCI tumour cell line growth inhibition, 48 h
reported_endpoint: TGI

- compound: "O=C(NC1CCCCC1)c1c(O)[nH]c(=S)[nH]c1=O"
  TGI: "> 100 µM"
- compound: "COc1ccc(OC)c(/C=C/[N+](=O)[O-])c1"
  TGI: "9.34 µM"

Exam item: Would you kindly share the measured TGI for COc1ccc(CC(=O)c2cc(OC)c(OC)cc2C)cc1OC ?
Marked response: > 100 µM

Exam item: Continue with Cc1ccc(OP2(=O)Oc3ccc4ccccc4c3CN2c2ccc(Cl)cc2)cc1C (stereo unspecified)
Marked response: > 100 µM

Exam item: Continue with COc1ccc(CNc2cc(OC)cc(OC)c2)cc1
Marked response: > 100 µM

Exam item: Continue with O=c1/c(=C/c2cccc3ccccc23)sc2nc3ccccc3n12
Marked response: > 100 µM

Where do the numbers come from? From PubChem BioAssay (NCI).
